- Assay Summary: Pharmacokinetics in CD-1 mice (plasma concentrations, PK parameters)
- Assay type: in vivo
- Condition: CD-1, mouse, plasma, iv, 2 mg/kg, mouse (CD1) iv 2 mg/kg; Mean IV; read-out: AUC0-inf

>  <Compound>
NC(=O)c1nn(-c2ccc(C(=O)NCCOCCOCCNc3cccc4c3C(=O)N(C3CCC(=O)NC3=O)C4=O)cc2)cc1NC(=O)c1coc(-c2ccnc(NCC(F)(F)F)c2)n1 (stereo not shown) [I-127]

>  <AUC(0-inf), ng·h/mL>
511

$$$$

---

- Experimental Target: IRAK4 (Homo sapiens)
- Sequence (Q9NWZ3 whole entry): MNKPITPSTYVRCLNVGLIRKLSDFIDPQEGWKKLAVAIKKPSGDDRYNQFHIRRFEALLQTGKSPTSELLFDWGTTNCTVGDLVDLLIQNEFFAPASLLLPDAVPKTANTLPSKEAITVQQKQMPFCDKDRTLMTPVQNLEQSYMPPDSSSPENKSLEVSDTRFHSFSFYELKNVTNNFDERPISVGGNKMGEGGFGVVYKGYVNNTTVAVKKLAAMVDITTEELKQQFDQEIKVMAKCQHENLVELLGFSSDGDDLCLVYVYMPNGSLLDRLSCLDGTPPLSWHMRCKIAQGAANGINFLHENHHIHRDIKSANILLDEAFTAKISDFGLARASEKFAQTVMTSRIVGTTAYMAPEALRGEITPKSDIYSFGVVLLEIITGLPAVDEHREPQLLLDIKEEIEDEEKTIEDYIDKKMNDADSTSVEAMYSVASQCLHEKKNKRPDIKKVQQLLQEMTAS
- Assay Summary: OCI-LY-10 degradation assay (western blot, % IRAK4 degraded after 4 hours)
- Type: cell-based
- Parameters: endogenous in cells; host or cells: OCI-LY10
- Condition: OCI-LY10 cells, 4 hours, 0.01 uM compound
- Description: Compounds were reconstituted in DMSO to make stock solutions at concentration of 60 mM. THP-1 and OCI-LY10 cells were maintained in RPMI-1640 medium containing 10% FBS, 0.5 μM 2-ME or 20% FBS, 55 μM 2-ME, and 1% L-Glutamine respectively. […] The protein concentration of cell lysates was quantified with Pierce™ BCA Protein Assay Kit (Pierce, 23227). […] After incubation at 37° C. for 30 min, the absorbance of samples at 562 nm were measured with EnVision Plate Reader. […]

>  <Molecule>
O=C1CCC(n2c(=O)oc3c(CCCOCCOCCNC(=O)c4ccc(-n5cc(NC(=O)c6coc(-c7ccnc(NCC8CC8)c7)n6)c(C(F)F)n5)cc4)cccc32)C(=O)N1 (stereo not drawn)

>  <Experimental Target>
IRAK4 (Homo sapiens)

>  <OCI-LY10 % IRAK4 Degradation (0.01 uM)>
B (>20-50% degradation)

$$$$
>  <Molecule>
CN(CCOCCOCCCc1ccc2c(c1)C(=O)N(C1CCC(=O)NC1=O)C2=O)C(=O)c1ccc(-n2cc(NC(=O)c3coc(-c4ccnc(NCC(F)(F)F)c4)n3)c(C(F)F)n2)cc1 (stereo not drawn)

>  <Experimental Target>
IRAK4 (Homo sapiens)

>  <OCI-LY10 % IRAK4 Degradation (0.01 uM)>
C (<20% degradation)

$$$$
>  <Molecule>
CN(CCCc1cccc2c1C(=O)N(C1CCC(=O)NC1=O)C2=O)Cc1ccc(-n2cc(NC(=O)c3coc(-c4ccncc4)n3)c(C(F)F)n2)cc1 (stereo not drawn)

>  <Experimental Target>
IRAK4 (Homo sapiens)

>  <OCI-LY10 % IRAK4 Degradation (0.01 uM)>
C (<20% degradation)

$$$$
>  <Molecule>
NC(=O)c1nn(-c2ccc(C(=O)NCCCCCNCCNc3cccc4c3C(=O)N(C3CCCNC3=O)C4=O)cc2)cc1NC(=O)c1coc(-c2ccnc(NCC(F)(F)F)c2)n1 (stereo not drawn)

>  <Experimental Target>
IRAK4 (Homo sapiens)

>  <OCI-LY10 % IRAK4 Degradation (0.01 uM)>
C (<20% degradation)

$$$$
>  <Molecule>
CN(CCOCCOCCCc1cccc2c1C(=O)N(C1CCC(=O)NC1=O)C2=O)C(=O)c1ccc(-n2cc(NC(=O)c3coc(-c4ccnc(NCC5CC5)c4)n3)c(C(N)=O)n2)cc1 (stereo not drawn)

>  <Experimental Target>
IRAK4 (Homo sapiens)

>  <OCI-LY10 % IRAK4 Degradation (0.01 uM)>
B (>20-50% degradation)

$$$$
>  <Molecule>
O=C1CCC(N2C(=O)c3cccc(NCCOCCOCCOCCOCCn4cc(NC(=O)c5coc(-c6ccnc(NCC7CC7)c6)n5)c(C(F)F)n4)c3C2=O)C(=O)N1 (stereo not drawn)

>  <Experimental Target>
IRAK4 (Homo sapiens)

>  <OCI-LY10 % IRAK4 Degradation (0.01 uM)>
C (<20% degradation)

$$$$

Where do the numbers come from? From patent US10874743B2.
